Test system: human Factor 11 mRNA
TEST_DESCRIPTION: Antisense inhibition of human Factor 11 in HepG2 cells by microwalk gapmers, lipofectin, 75 nM (Example 3)
Type: cell-based
MEASUREMENT_CONDITIONS: HepG2, lipofectin, ~24 h, gapmers targeted to nucleobases 656 to 704 of SEQ ID NO: 1
Strand notation (5' to 3'): a small letter for the sugar, then the base; units joined by * are phosphorothioate-linked, units joined directly phosphodiester-linked; [ ] holds rarer units or linkages, { } end groups; capitals alone tell only the bases. e = 2'-O-(2-methoxyethyl) (MOE); [5mC] = 5-methylcytosine; d = 2'-deoxy (DNA)
So basically: % inhibition at 60% or higher? That is rule met. Lower than 60%? That is rule not met.

{"SUBSTANCE": "416968 (antisense e[5mC]*e[5mC]*d[5mC]*dT*dT*d[5mC]*dA*dT*dG*dT*d[5mC]*dT*dA*dG*dG*eT*e[5mC]*e[5mC]*eA*e[5mC]) [compound 416968]", "STUDY_TARGET": "human Factor 11 mRNA", "CATEGORY_LABEL": "rule met"}
{"SUBSTANCE": "416966 (antisense e[5mC]*eT*dT*d[5mC]*dA*dT*dG*dT*d[5mC]*dT*dA*dG*dG*dT*d[5mC]*e[5mC]*eA*e[5mC]*eA*eT) [compound 416966]", "STUDY_TARGET": "human Factor 11 mRNA", "CATEGORY_LABEL": "rule met"}
{"SUBSTANCE": "416877 (antisense eG*eT*e[5mC]*d[5mC]*dA*d[5mC]*dA*dT*dA*dA*dA*dT*dG*dT*d[5mC]*dT*dT*eT*eG*eT) [compound 416877]", "STUDY_TARGET": "human Factor 11 mRNA", "CATEGORY_LABEL": "rule not met"}
{"SUBSTANCE": "416827 (antisense eT*eA*eT*eG*e[5mC]*d[5mC]*d[5mC]*dT*dT*d[5mC]*dA*dT*dG*dT*d[5mC]*eT*eA*eG*eG*eT) [compound 416827]", "STUDY_TARGET": "human Factor 11 mRNA", "CATEGORY_LABEL": "rule met"}

----------
Test system: human Factor 11 mRNA
TEST_DESCRIPTION: Dose-dependent antisense inhibition of human Factor 11 in HepG2 cells, lipofectin 9.375-150 nM (Example 2)
Format: cell-based
MEASUREMENT_CONDITIONS: 150 nM, ~16 h
Strand notation (5' to 3'): a small letter for the sugar, then the base; units joined by * are phosphorothioate-linked, units joined directly phosphodiester-linked; [ ] holds rarer units or linkages, { } end groups; capitals alone tell only the bases. e = 2'-O-(2-methoxyethyl) (MOE); [5mC] = 5-methylcytosine; d = 2'-deoxy (DNA)
Threshold check on percent inhibition of Factor 11 at 150 nM: at or above 80% gives 1 (yes), strictly below gives 0 (no).

{"SUBSTANCE": "413468 (antisense eG*eT*e[5mC]*eT*eA*dG*dG*dT*d[5mC]*d[5mC]*dA*d[5mC]*dA*dT*dA*eA*eA*eT*eG*eT) [compound 413468]", "CATEGORY_LABEL": "0 (no)"}
{"SUBSTANCE": "412212 (antisense e[5mC]*e[5mC]*eG*eG*eG*dA*dT*dG*dA*dT*dG*dA*dG*dT*dG*e[5mC]*eA*eG*eA*eT) [compound 412212]", "CATEGORY_LABEL": "1 (yes)"}
{"SUBSTANCE": "413467 (antisense eG*eG*eT*e[5mC]*e[5mC]*dA*d[5mC]*dA*dT*dA*dA*dA*dT*dG*dT*e[5mC]*eT*eT*eT*eG) [compound 413467]", "CATEGORY_LABEL": "0 (no)"}
{"SUBSTANCE": "412225 (antisense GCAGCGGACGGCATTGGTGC; 5-10-5 MOE gapmer, further chemistry not given here) [compound 412225]", "CATEGORY_LABEL": "0 (no)"}
{"SUBSTANCE": "413469 (antisense eT*eG*e[5mC]*e[5mC]*e[5mC]*dT*dT*d[5mC]*dA*dT*dG*dT*d[5mC]*dT*dA*eG*eG*eT*e[5mC]*e[5mC]) [compound 413469]", "CATEGORY_LABEL": "1 (yes)"}

----------
TEST_DESCRIPTION: Hematology assays in cynomolgus monkeys (Example 46)
Assay type: in vivo
MEASUREMENT_CONDITIONS: Day 31
Strand notation (5' to 3'): a small letter for the sugar, then the base; units joined by * are phosphorothioate-linked, units joined directly phosphodiester-linked; [ ] holds rarer units or linkages, { } end groups; capitals alone tell only the bases. e = 2'-O-(2-methoxyethyl) (MOE); [5mC] = 5-methylcytosine; d = 2'-deoxy (DNA)
Note to self: use T only for WBC count readings below 10000 µL⁻¹; a reading exactly at 10000 µL⁻¹ still gets F.

{"SUBSTANCE": "ISIS 416858: MOE gapmer, nucleobases 1275 to 1318 of SEQ ID NO: 1 (Table 8) (antisense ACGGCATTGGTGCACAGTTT; MOE gapmer, wing and gap sizes not given here)", "CATEGORY_LABEL": "T"}
{"SUBSTANCE": "ISIS 449707: 3-8-3, 4-8-4, 2-10-2, 3-10-3 or 4-10-4 MOE microwalk gapmer (Table 46) (antisense e[5mC]*eA*e[5mC]*eA*dG*dT*dT*dT*d[5mC]*dT*dG*dG*e[5mC]*eA*eG*eG)", "CATEGORY_LABEL": "F"}
{"SUBSTANCE": "ISIS 449711: 3-8-3, 4-8-4, 2-10-2, 3-10-3 or 4-10-4 MOE microwalk gapmer (Table 46) (antisense eA*e[5mC]*dA*dG*dT*dT*dT*d[5mC]*dT*dG*dG*d[5mC]*eA*eG)", "CATEGORY_LABEL": "T"}
{"SUBSTANCE": "ISIS 445531: 5-8-5 or 6-8-6 MOE microwalk gapmer (Table 44) (antisense eG*eG*e[5mC]*eA*eT*dT*dG*dG*dT*dG*d[5mC]*dA*d[5mC]*eA*eG*eT*eT*eT)", "CATEGORY_LABEL": "F"}
{"SUBSTANCE": "ISIS 449710: 3-8-3, 4-8-4, 2-10-2, 3-10-3 or 4-10-4 MOE microwalk gapmer (Table 46) (antisense e[5mC]*eA*e[5mC]*dA*dG*dT*dT*dT*d[5mC]*dT*dG*dG*d[5mC]*eA*eG*eG)", "CATEGORY_LABEL": "F"}
{"SUBSTANCE": "ISIS 416850: MOE gapmer, nucleobases 1275 to 1318 of SEQ ID NO: 1 (Table 8) (antisense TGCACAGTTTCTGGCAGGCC; MOE gapmer, wing and gap sizes not given here)", "CATEGORY_LABEL": "F"}
{"SUBSTANCE": "ISIS 449708: 3-8-3, 4-8-4, 2-10-2, 3-10-3 or 4-10-4 MOE microwalk gapmer (Table 46) (antisense eA*e[5mC]*eA*dG*dT*dT*dT*d[5mC]*dT*dG*dG*e[5mC]*eA*eG)", "CATEGORY_LABEL": "F"}
{"SUBSTANCE": "ISIS 449709: 3-8-3, 4-8-4, 2-10-2, 3-10-3 or 4-10-4 MOE microwalk gapmer (Table 46) (antisense eG*e[5mC]*eA*e[5mC]*dA*dG*dT*dT*dT*d[5mC]*dT*dG*dG*d[5mC]*eA*eG*eG*e[5mC])", "CATEGORY_LABEL": "F"}
{"SUBSTANCE": "ISIS 445522: 5-8-5 or 6-8-6 MOE microwalk gapmer (Table 44) (antisense eG*e[5mC]*eA*e[5mC]*eA*dG*dT*dT*dT*d[5mC]*dT*dG*dG*e[5mC]*eA*eG*eG*e[5mC])", "CATEGORY_LABEL": "F"}

----------
System: human Factor 11 mRNA
TEST_DESCRIPTION: Dose-dependent inhibition of human Factor 11 in HepG2 cells, electroporation 625-20,000 nM (Example 5)
Assay type: cell-based
MEASUREMENT_CONDITIONS: 20000 nM, ~16 hours
Consider the following substances and their measured percent inhibition of human Factor 11 mRNA relative to untreated control cells readings.
RESULT_TYPE: percent inhibition of human Factor 11 mRNA relative to untreated control cells (%)

{"SUBSTANCE": "416892 (antisense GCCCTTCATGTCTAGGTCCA; 3-14-3 chimeric gapmer, further chemistry not given here) [compound 416892]", "UNIT_ABBREV": "%", "VALUE_MEASURED": 100}
{"SUBSTANCE": "416858 (antisense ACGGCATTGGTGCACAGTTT; 5-10-5 gapmer, further chemistry not given here) [compound 416858]", "UNIT_ABBREV": "%", "VALUE_MEASURED": 93}
{"SUBSTANCE": "416826 (antisense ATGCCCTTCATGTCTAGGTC; 5-10-5 gapmer, further chemistry not given here) [compound 416826]", "UNIT_ABBREV": "%", "VALUE_MEASURED": 97}
{"SUBSTANCE": "416925 (antisense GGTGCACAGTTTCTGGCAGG; 3-14-3 gapmer chemistry, further chemistry not given here) [compound 416925]", "UNIT_ABBREV": "%", "VALUE_MEASURED": 96}
{"SUBSTANCE": "416999 (antisense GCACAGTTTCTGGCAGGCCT; 2-13-5 gapmer chemistry, further chemistry not given here) [compound 416999]", "UNIT_ABBREV": "%", "VALUE_MEASURED": 97}
{"SUBSTANCE": "416825 (antisense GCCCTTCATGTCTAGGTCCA; 5-10-5 gapmer, further chemistry not given here) [compound 416825]", "UNIT_ABBREV": "%", "VALUE_MEASURED": 97}
{"SUBSTANCE": "417002 (antisense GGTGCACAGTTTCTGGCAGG; 2-13-5 gapmer chemistry, further chemistry not given here) [compound 417002]", "UNIT_ABBREV": "%", "VALUE_MEASURED": 96}
{"SUBSTANCE": "417003 (antisense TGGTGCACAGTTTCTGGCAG; 2-13-5 gapmer chemistry, further chemistry not given here) [compound 417003]", "UNIT_ABBREV": "%", "VALUE_MEASURED": 95}
{"SUBSTANCE": "416850 (antisense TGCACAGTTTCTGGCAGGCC; 5-10-5 gapmer, further chemistry not given here) [compound 416850]", "UNIT_ABBREV": "%", "VALUE_MEASURED": 96}
{"SUBSTANCE": "416864 (antisense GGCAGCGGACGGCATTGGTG; 5-10-5 gapmer, further chemistry not given here) [compound 416864]", "UNIT_ABBREV": "%", "VALUE_MEASURED": 94}
{"SUBSTANCE": "416838 (antisense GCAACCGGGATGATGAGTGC; 5-10-5 gapmer, further chemistry not given here) [compound 416838]", "UNIT_ABBREV": "%", "VALUE_MEASURED": 96}

FYI, the data here is from patent US20230263822A1.
